Tested on: HT29 colon
method.summary: NCI-60 one-dose screen, 48 h
measurement.context: 10 µM unless noted
This is part of a sample that, as a whole, favours compounds with a hit. Of some 83,000 tested, about 20% had one in any assay. Activity calls are given as the source filed them. Rule for the calls: active = growth percent below 10; inactive = the rest.
Classes used: Yes = active, No = inactive

{"compound": "COc1ccc(Nc2nc(-c3cc(O)c(C)c(C)c3O)cs2)cc1", "class": "No"}
{"compound": "O=C(/C=C/c1ccccc1)Nc1ncc(Cc2ccccc2Cl)s1", "class": "Yes"}
{"compound": "NC(=O)c1c(NC(=O)c2ccc3ccccc3c2)sc2c1CCC(=O)C2", "class": "No"}
{"compound": "COc1cc(C2CC(c3ccc(Nc4nc(Nc5ccc(Cl)cc5)nc(Nc5ccc(Cl)cc5)n4)cc3)=NN2C(C)=O)cc(OC)c1OC (stereo not given)", "class": "No"}
{"compound": "CCNCCNc1cc(C2CCCCC2)c(C#N)c2nc3ccccc3n12", "class": "Yes"}
{"compound": "Clc1cccc(Nc2ncnc3ccc(-c4cnc5[nH]ccc5c4)cc23)c1", "class": "No"}
{"compound": "Nc1ncnc2c1c(-c1cccc(Cl)c1)nn2CC(=O)N1CCOCC1", "class": "No"}
{"compound": "Cn1c(=O)cc2c3c(c(NCCCO)ccc31)C(=O)c1ccccc1-2", "class": "No"}
{"compound": "Oc1c(I)cc(I)cc1CNCCN(Cc1ccccn1)Cc1ccccn1", "class": "Yes"}
{"compound": "N=C(N)c1ccc(-c2ccc(-c3ccc(Cl)cc3Cl)s2)cc1", "class": "Yes"}
{"compound": "COc1ccc(C(=O)/C=C/c2c(C(F)(F)F)nc3ccccn23)cc1OC", "class": "Yes"}
{"compound": "COC(=O)C1Cc2ccccc2CN1C(=O)c1ccc2c(c1)Cc1ccccc1-2 (stereo not given)", "class": "No"}
{"compound": "CCCCCCCC[C@@H]1N[C@@H](C(=O)OC)Cc2c1[nH]c1ccccc21", "class": "No"}
{"compound": "CCN1CCN(C(=O)[C@]23CCC(C)(C)C[C@@H]2C2=CC[C@@H]4[C@@]5(C)CCC(=O)C(C)(C)[C@@H]5CC[C@@]4(C)[C@]2(C)CC3)CC1", "class": "Yes"}
{"compound": "Cc1ccc2c(c1)=C/C(=C\\c1cc(-c3ccccc3)oc1O)C(=O)N=2", "class": "No"}
{"compound": "COc1ccc(-c2cc(-c3ccc(Cl)cc3)c(C#N)c(=O)n2Cc2ccc(C(=O)Nc3ccccc3N)cc2)cc1", "class": "No"}
{"compound": "Cc1[nH]c(=O)[nH]c(=O)c1Br", "class": "No"}
{"compound": "COCCn1cc(-c2csc(-c3cn(C)c4ccc(Br)cc34)n2)c2cccnc21", "class": "No"}
{"compound": "CN(C)c1ccc(C(=O)OCCCCCCl)cc1", "class": "No"}
{"compound": "C#CCOc1cccc(Nc2ncnc3cc(NC(=O)C=C)ccc23)c1", "class": "Yes"}
{"compound": "C=CCSc1nnc(NC(=O)CCl)s1", "class": "No"}
{"compound": "CCCNC(=O)Nc1ccc2cc3ccc(NC(=O)NCCC)cc3nc2c1", "class": "No"}
{"compound": "COc1cc2c(cc1OCCCN1CCN(CCCOc3cc4c(cc3OC)C(=O)N3CC(F)(F)C[C@H]3C=N4)CC1)N=C[C@@H]1CC(F)(F)CN1C2=O", "class": "No"}
{"compound": "c1cnc2c(-c3nc4ccc5[nH]ncc5c4c4c3CCCC4)c[nH]c2c1", "class": "No"}
{"compound": "COc1ccc(-c2ccc(=O)oc2-c2cc(OC)c(OC)c(OC)c2)cc1O", "class": "Yes"}
{"compound": "COc1ccc(/C=N/C2=C(C#N)C(c3ccccc3)c3ccc4ccccc4c3O2)cc1 (stereo not given)", "class": "Yes"}
{"compound": "CN(C)c1ccc(-c2c(C#N)c(N)nn2C(=O)c2ccc(NC(=O)c3ccccn3)cc2)cc1", "class": "No"}
{"compound": "CCN1C(=S)N(c2ccccc2)C2NC(=S)N(/N=C/C=C/c3ccccc3OC)C21 (stereo not given)", "class": "Yes"}
{"compound": "CCN(CC)c1ccc(\\C=N/N=C(N)/C(N)=N\\N=C/c2ccc(N(CC)CC)cc2)cc1", "class": "No"}
{"compound": "Cc1cc(C(=O)Nc2ncc(Cc3cccc(C(F)(F)F)c3)s2)c2ccccc2n1", "class": "Yes"}
{"compound": "COC(=O)CC[C@H](C)[C@H]1CC[C@H]2[C@@H]3CC[C@@H]4CC5(CC[C@]4(C)[C@H]3CC(=O)[C@]12C)Nc1ccccc1NC5=NC(C)(C)C (stereo not given in full)", "class": "No"}
{"compound": "COc1ccc(CN2c3ccccc3Sc3ccccc32)cc1F", "class": "Yes"}
{"compound": "CC/C(=C(/c1ccc(Cl)cc1)c1ccc(OCCN2CCCCC2)cc1)c1ccc(OC)cc1", "class": "No"}
{"compound": "O=C(OC(CO)C(=O)NC12CC3CC(CC(C3)C1)C2)c1ccc(Cl)cc1 (stereo not given)", "class": "No"}
{"compound": "CC(C)c1ccc(C(=O)Nc2sc3c(c2C(N)=O)CCC(=O)C3)cc1", "class": "Yes"}
{"compound": "O=C(Nc1cccc2ccccc12)NC1CC1", "class": "No"}
{"compound": "N#CSc1c[nH]c2cccc(/C=C/C(=O)/C=C(/C=C/c3cccc4[nH]cc(SC#N)c34)OB(F)F)c12", "class": "Yes"}
{"compound": "CCSC(SCC)c1ccc(Cl)cc1", "class": "No"}
{"compound": "Nc1n[nH]c2cccc(C#Cc3cccc(C(=O)Nc4cc(C(F)(F)F)cc(C(F)(F)F)c4)c3)c12", "class": "No"}
{"compound": "COc1cc(-c2cncn2-c2ccc(-c3nc4ccc(F)cc4s3)cc2)ccc1F", "class": "No"}
